Test system: LOX IMVI melanoma
assayInfo: NCI tumour cell line growth inhibition, 48 h
experimentalEndpoint: TGI (µM)
The answer is to be given in µM; state only the numeric part.

[
  {
    "compound": "CCOC(=O)c1c(-c2ccccc2)[n+](=O)c2cc(Cl)c(Cl)cc2n1[O-]",
    "TGI, µM": 2.91
  },
  {
    "compound": "COc1cc(CNCCCCCCN2C(=O)c3cccc4cccc(c34)C2=O)ccc1O",
    "TGI, µM": 3.68
  },
  {
    "compound": "COC(=O)C(CC(C)C)NC(=O)C(NC(=O)c1ccc(-c2ccc(Cl)cc2Cl)o1)C(C)C (stereo not given)",
    "TGI, µM": 30.9
  }
]

The reported value for COc1cc(/C=C/C(=O)c2cccc(-n3cc(-c4cc(OC)c(OC)c(OC)c4)[nH]c3=O)c2)cc(OC)c1OC in terms of TGI is 3.48

---

Test system: MCF7 breast
assayInfo: NCI tumour cell line growth inhibition, 48 h; in the data active = GI50 below about 0.43 µM; inactive = the rest
Can you answer with just one of these options? yes (1) = active, no (0) = inactive

[
  {
    "compound": "CSC1=NC(=Nc2c(C)cccc2C)C2(CCC(C(C)(C)C)CC2)N1c1ccc(Cl)cc1 (stereo not given)",
    "systemName": "MCF7 breast",
    "classLabel": "no (0)"
  },
  {
    "compound": "O=C1/C(=C/c2ccc(Cl)c(Cl)c2)CN(C(=O)C(Cl)Cl)C/C1=C\\c1ccc(Cl)c(Cl)c1",
    "systemName": "MCF7 breast",
    "classLabel": "yes (1)"
  },
  {
    "compound": "COc1ccc2c(c1)OC(N)=C(C#N)C2c1cc(OC)c(OC)c(OC)c1 (stereo not given)",
    "systemName": "MCF7 breast",
    "classLabel": "yes (1)"
  },
  {
    "compound": "COc1cnc2c(c1)C(=O)c1c-2n(CCCNC2=NCCS2)c(=O)c2cc(F)ccc12",
    "systemName": "MCF7 breast",
    "classLabel": "yes (1)"
  },
  {
    "compound": "N#CCn1c(=O)c(Oc2ccc(F)cc2F)cc2cnc(NC3CCOCC3)nc21",
    "systemName": "MCF7 breast",
    "classLabel": "no (0)"
  },
  {
    "compound": "c1ccc(-c2oc(-c3ccccc3)c(CN3CCCCC3)c2CN2CCCCC2)cc1",
    "systemName": "MCF7 breast",
    "classLabel": "no (0)"
  }
]

Could you please tell me the result logged for CN1CCN(CC(=O)N(C)c2ccc(N=C(c3ccccc3)c3c(O)[nH]c4ccc(C#N)cc34)cc2)CC1 in this assay?
no (0)

Could you please tell me the result logged for CC(C)=CCc1cc2c(cc1O)C1=C(C(=O)C3=C(C1=O)S(=O)(=O)CCN3)C(C=C(C)C)O2 (stereo not given) in this assay?
yes (1)

---

Tested on: SF-295 CNS
assayInfo: NCI tumour cell line growth inhibition, 48 h; in the data active = GI50 below about 0.43 µM; inactive = the rest
Can you answer with just one of these options? T for active, F for inactive

Example entries begin here.
[
  {
    "molecule": "CCN(CC)c1ccc(/C=C/C(=O)c2ccc(Nc3nc(Nc4ccccc4)nc(Nc4ccccc4)n3)cc2)cc1",
    "classLabel": "F"
  },
  {
    "molecule": "O=C(CS(=O)(=O)c1nc2ccccc2nc1-c1ccccc1)Nc1ccc(F)cc1",
    "classLabel": "F"
  },
  {
    "molecule": "C=C1C[C@H]2C=Nc3cc(OCCCOc4cc5c(cc4OC)C(=O)N4CC(=C)C[C@H]4C=N5)c(OC)cc3C(=O)N2C1",
    "classLabel": "T"
  },
  {
    "molecule": "N#CCn1c(=O)c(Oc2ccc(F)cc2F)cc2cnc(NC3CCOCC3)nc21",
    "classLabel": "F"
  },
  {
    "molecule": "C=C1C(=O)O[C@H]2[C@H]1CC/C(COC(=O)c1cc(OC)c(OC)c(OC)c1)=C\\CC[C@@]1(C)O[C@@H]21",
    "classLabel": "F"
  }
]

Could you please tell me the result logged for CC1CC2C3CCC4=CC(=O)C=CC4(C)C3(F)C(O)CC2(C)C1(O)C(=O)COP(=O)(O)O (stereo not given) in this assay?
F

Could you please tell me the result logged for CN1CCN(CC(=O)N(C)c2ccc(N=C(c3ccccc3)c3c(O)[nH]c4ccc(C#N)cc34)cc2)CC1 in this assay?
F
